- ASSAY_OVERVIEW: BET inhibitor-based combinations targeting novel dependencies in MECOM-rearranged (r) AML: UCSD-AML1 cell line (AID 2202235); also: nearly all actives have a fitted effect of over 40% in size
- REPORTED_CONDITIONS: UCSD-AML1 AML cells viability, CellTiter-Glo, 48 h; series mostly up to 46 µM
Records with an inconclusive call do not appear. Calls of active or inactive are those of the source. Calls follow the shape of the dose curve; as a rule, active = well fitted inhibition curve with a large enough effect; inconclusive = small, poorly fitted or top-dose-only effect; inactive = no such curve, though single readings can be large or run the other way.
Classes used: active, inactive

[
  {
    "MOLECULE": "S=C(NCc1ccc2c(c1)OCO2)N1CCN(c2ncnc3c2oc2ccccc23)CC1",
    "GROUP_LABEL": "inactive"
  },
  {
    "MOLECULE": "N#Cc1ccnc(Nc2cc(C3CCN(C4COC4)CC3)cc(N3CCC(F)(F)C3)n2)c1",
    "GROUP_LABEL": "active"
  },
  {
    "MOLECULE": "C=C(C)[C@@H]1CC[C@]2(C(=O)O)CC[C@]3(C)[C@H](CC[C@@H]4[C@@]5(C)CC[C@H](O)C(C)(C)[C@@H]5CC[C@]43C)[C@@H]12",
    "GROUP_LABEL": "inactive"
  },
  {
    "MOLECULE": "O=C(O)C[C@H](O)C[C@H](O)/C=C/c1c(C2CC2)nc2ccccc2c1-c1ccc(F)cc1",
    "GROUP_LABEL": "active"
  },
  {
    "MOLECULE": "CCCn1c(=O)c2[nH]c(-c3cnn(Cc4cccc(C(F)(F)F)c4)c3)nc2n(CC)c1=O",
    "GROUP_LABEL": "inactive"
  },
  {
    "MOLECULE": "Cn1ncc2cc(-c3cnc(N)c(Cl)c3N3CCC4(CCNC4=O)CC3)ccc21",
    "GROUP_LABEL": "active"
  },
  {
    "MOLECULE": "COc1nc(C)nc(Cl)c1NC1=NCCN1",
    "GROUP_LABEL": "inactive"
  },
  {
    "MOLECULE": "CC(O)(C#Cc1ccc2c(c1)N(c1nc(N)ncc1Cl)CC2)c1nccs1 (centres undefined)",
    "GROUP_LABEL": "inactive"
  },
  {
    "MOLECULE": "NC(=O)Nc1cc(-c2ccc(CN3CCOCC3)cc2)sc1C(N)=O",
    "GROUP_LABEL": "active"
  }
]
